- tested system: T1, human glucose-dependent insulinotropic polypeptide receptor (hGIP-R) (human, UniProt P48546 22-466)
- T1 sequence (looked up): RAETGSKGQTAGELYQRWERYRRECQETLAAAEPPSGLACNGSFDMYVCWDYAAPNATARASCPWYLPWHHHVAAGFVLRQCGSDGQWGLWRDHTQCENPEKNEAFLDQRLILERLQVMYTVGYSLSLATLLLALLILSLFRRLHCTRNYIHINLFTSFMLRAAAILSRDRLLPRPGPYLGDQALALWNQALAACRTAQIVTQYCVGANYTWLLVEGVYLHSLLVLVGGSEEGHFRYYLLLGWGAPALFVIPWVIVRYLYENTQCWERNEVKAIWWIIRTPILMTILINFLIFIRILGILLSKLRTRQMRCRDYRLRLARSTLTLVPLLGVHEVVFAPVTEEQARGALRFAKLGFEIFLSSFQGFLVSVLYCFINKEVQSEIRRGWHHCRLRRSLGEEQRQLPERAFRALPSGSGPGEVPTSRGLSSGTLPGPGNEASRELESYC
- experiment: cell-based or functional assay
Where no end group is shown, it is not given here. Side-chain parts run from the residue outwards. [ ]: non-standard residue; d: D form. maleimide = maleimide end of mPEG-20 kDa maleimide, which attaches the 20 kDa PEG to the Cys thiol; 1Nal = N[C@@H](Cc1cccc2ccccc12)C(=O)O; Aib = CC(C)(N)C(=O)O
EC50 (relative), intracellular cAMP in hGIP-R-CHO-S cells, HTRF strictly less than 0.2 nM = fulfilled. Otherwise not fulfilled.

Illustrative cases are given below, each with its answer.
Y[Aib]EGTFTSDYSI[Aib]LDKIAQRAFVQWLIA[Aib]KGKKQEWKHQITQ (not fully specified (C-terminus), Not PEGylated) [Example 2 (Aib2, Aib13, Aib29 GIP analog, 42 residues)] :: fulfilled
Y[Aib]EGTFTSDYSI[Aib]LDKIAQRA[1Nal]VQWLIA[Aib]KGKKQEWKHQITQC([acetamide-mPEG 20 kDa])C([acetamide-mPEG 20 kDa])-NH2 :: not fulfilled
Y[Aib]EGTFTSDYSI[Aib]LDKIAQRA[1Nal]VQWLIA[Aib]KGKKQEWKHQITQ (not fully specified (C-terminus), Not PEGylated) [Example 1 (Aib2, Aib13, Nal22, Aib29 GIP analog, 42 residues)] :: fulfilled
Y[Aib]EGTFTSDYSI[Aib]LDKIAQRA[1Nal]VQWLIA[Aib]KGKKQEWKHQITQC([maleimide-mPEG 20 kDa])C([maleimide-mPEG 20 kDa])-NH2 (also called Ex 4) [Aib2, Aib13, Nal22, Aib29, Cys43(PEG20K), Cys44(PEG20K)-GIP (Example 4, PEGylated with mPEG-MAL)] :: not fulfilled

Dear reviewer, please state whether Y[Aib]EGTFTSDYSI[Aib]LDKIAQRAFVQWLIA[Aib]KGKKQEWKHQITQC([maleimide-mPEG 20 kDa])C([maleimide-mPEG 20 kDa])-NH2 [Aib2, Aib13, Aib29, Cys43(PEG20K), Cys44(PEG20K)-GIP (Example 3, PEGylated with mPEG-MAL)] has EC50 (relative), intracellular cAMP in hGIP-R-CHO-S cells, HTRF strictly beneath 0.2 nM.
not fulfilled

Where do the numbers come from? From patent US20110237503A1.
